The following molecules are listed with their measured logP values.
- Method notes: Octanol-water partition coefficient, log P of the compound
- Assay type: physicochemical
Just the number, please, no unit after it.

These recorded examples may help you get a feel for the data.
CC(C)(C)C(=O)Nc1nc2ccccc2s1	4.07
O=C(Nc1nc2ccccc2s1)c1ccccc1	4.04
O=C(Cc1ccccc1)Nc1nc2ccccc2s1	3.98

Proceed to the following item.
IN: What value of logP has been reported for the following molecule? O=C(Nc1nc2ccccc2s1)C1CCCCC1
OUT: 4.11
